# Test system: MDA-MB-436
# run description: Anti-proliferation assay (ATPLite), Chalice synergy score
# Assay type: cell-based
# measurement parameters: Compound 1 in combination with second active agent, mean self-cross + 2σ threshold 1.91
# Description: Cells were thawed from a liquid nitrogen preserved state. The calculation for synergy score is provided below. If T≧V0:100*[1−(T−V0)/(V−V0)]
Structures can show the parent of a compound that is named as a salt.

| compound | measured on | Synergy score |
| --- | --- | --- |
| c1ccc2c(CCNc3ccc(Nc4ccncc4)cc3)c[nH]c2c1 | MDA-MB-436 | 1.47 |
| CN(C)CC[C@H](CSc1ccccc1)Nc1ccc(S(=O)(=O)NC(=O)c2ccc(N3CCN(Cc4ccccc4-c4ccc(Cl)cc4)CC3)cc2)cc1[N+](=O)[O-] | MDA-MB-436 | 0.56 |
| CC1=C(C(=O)Nc2cc3cn[nH]c3cc2F)C(c2ccc(C(F)(F)F)cc2)CC(=O)N1 (centres unmarked) [GSK429286A] | MDA-MB-436 | 0.57 |
| Nc1ccn([C@@H]2O[C@H](CO)[C@@H](O)C2(F)F)c(=O)n1 [Gemcitabine Hydrochloride] | MDA-MB-436 | 3.05 |
| OCCn1cc(-c2cnc3nnn(Cc4ccc5ncccc5c4)c3n2)cn1 | MDA-MB-436 | 0.08 |
| O=C(Nc1cc(C(F)(F)F)cc(C(F)(F)F)c1)c1cc(Cl)ccc1O | MDA-MB-436 | 3.94 |
| N.N.O=C([O-])C1(C(=O)[O-])CCC1.[Pt+2] | MDA-MB-436 | 1.10 |
| C/C=C1\NC(=O)[C@H]2CSSCC/C=C/[C@H](CC(=O)N[C@H](C(C)C)C(=O)N2)OC(=O)[C@H](C(C)C)NC1=O | MDA-MB-436 | 5.84 |

This collection of values is drawn from patent US9737535B2.
